Molecular target: UniProtKB P08173
Sequence (P08173 1-479): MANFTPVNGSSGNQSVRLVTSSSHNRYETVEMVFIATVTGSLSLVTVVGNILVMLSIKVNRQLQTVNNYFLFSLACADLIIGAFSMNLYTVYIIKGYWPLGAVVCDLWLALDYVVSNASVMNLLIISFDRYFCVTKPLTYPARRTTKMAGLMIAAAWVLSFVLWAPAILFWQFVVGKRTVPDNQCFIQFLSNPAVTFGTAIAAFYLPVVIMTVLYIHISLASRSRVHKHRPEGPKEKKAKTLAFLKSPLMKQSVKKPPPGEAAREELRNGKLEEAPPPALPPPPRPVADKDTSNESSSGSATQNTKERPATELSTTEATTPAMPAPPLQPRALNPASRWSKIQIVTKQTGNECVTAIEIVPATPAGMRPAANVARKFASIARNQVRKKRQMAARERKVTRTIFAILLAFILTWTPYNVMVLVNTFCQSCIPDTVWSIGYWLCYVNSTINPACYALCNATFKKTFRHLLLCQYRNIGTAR
Test: human FLIPR-based M4 PAM assay (Ca2+ mobilization, CHO-K1 cells with human M4 receptor and Gαqi5)
Details: acetylcholine at 20% of maximum response, read-out: M4 PAM IP
pEC50: −log10 of the molar value.
Parameter threshold = 7. Response is Yes when pEC50 meets or exceeds it, else No.

molecule	classification
Cc1cc2c(nc1N1CCC(Oc3ccc4c(c3)C[S+]([O-])C4)CC1)CNC2=O (centres unmarked) [Example 167A]	No
Cc1cc2c(nc1N1CC[C@H](Oc3cccc(C#N)c3)[C@@H](O)C1)CNC2=O [Example 43B]	No
Cc1cc2c(nc1N1CCC(OCc3cnn(C)c3)CC1)CNC2=O [Example 190A]	No
COC(=O)Cn1ncc2cc(OC3CCN(c4nc5c(cc4C)C(=O)NC5)CC3)ccc21	No
COCCOCc1cccc(OC2CCN(c3nc4c(cc3C)C(=O)NC4)CC2)c1	No
Cc1cc2c(nc1N1CCC(Oc3cccc(C#N)c3)CC1)CNC2=O	Yes
Cc1cc2c(nc1N1CCC(Oc3ccc([C@H](C)O)cc3)CC1)CNC2=O (single isomer, unassigned) [Example 150B]	No
CCc1cc2c(nc1N1CCC(Oc3ccc4c(c3)OCC4)CC1)[C@@H](CO)N(C)C2=O	Yes
Cc1cc2c(nc1N1CC[C@@H](Oc3cccc4c3COC4)[C@@H](F)C1)CNC2=O	No
Cc1cc2c(nc1N1CCC(Oc3ccc4c(c3)OC(F)(F)O4)CC1)CNC2=O	No

====

Biological target: human M4 muscarinic acetylcholine receptor (Homo sapiens, UniProt P08173)
Sequence (P08173 1-479): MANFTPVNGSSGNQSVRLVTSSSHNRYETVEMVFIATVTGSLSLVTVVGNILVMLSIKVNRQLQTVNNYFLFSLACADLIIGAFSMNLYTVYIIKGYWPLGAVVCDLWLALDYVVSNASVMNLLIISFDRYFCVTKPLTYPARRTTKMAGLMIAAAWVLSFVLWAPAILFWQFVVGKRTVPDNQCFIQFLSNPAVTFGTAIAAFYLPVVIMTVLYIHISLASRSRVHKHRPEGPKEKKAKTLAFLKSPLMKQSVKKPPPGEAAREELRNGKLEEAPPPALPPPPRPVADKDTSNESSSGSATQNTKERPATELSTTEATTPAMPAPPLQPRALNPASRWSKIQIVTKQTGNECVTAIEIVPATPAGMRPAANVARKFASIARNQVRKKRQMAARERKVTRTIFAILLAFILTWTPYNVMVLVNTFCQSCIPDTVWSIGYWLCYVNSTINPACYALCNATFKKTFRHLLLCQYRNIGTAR
Test: human FLIPR-based M4 PAM assay (Ca2+ mobilization, CHO-K1 cells with human M4 receptor and Gαqi5)
Conditions: acetylcholine at 20% of maximum response, read-out: M4 PAM IP
pEC50: −log10 of the molar value.
Lab note: compare pEC50 against 7. Equal or greater, write Yes. Smaller, write No.

compound	classification
Cc1cc2c(nc1N1CCC(Oc3ccc(O[C@@H](C)CO)nc3)CC1)CNC2=O (single isomer, unassigned) [Example 141B]	Yes
Cc1cc2c(nc1N1CCC(Oc3cncc(C#N)c3)CC1)CNC2=O	No
Cc1ccccc1OC1CCN(c2nc3c(cc2C)C(=O)NC3)CC1	No
Cc1c(N2CC[C@@H](OCC3(C)CC3)[C@@H](F)C2)nc2c(c1C)C(=O)N(CCO)C2 [Example 268F]	Yes
CCc1cc2c(nc1N1CCC(OCC3CC3)CC1)CNC2=O [Example 176A]	No
Cc1cc2c(nc1N1CCC(Oc3ccc4c(c3)COC4)CC1)CN(CCO)C2=O	Yes
